Hello, the source for this data is the kinase profiling compilation of Christmann-Franck et al. (2016), in case you need it.

Quick reference: residual activity of the listed items.
- target under test: PTK6 (human) (UniProt Q13882)
- Sequence (Q13882 whole entry, looked up): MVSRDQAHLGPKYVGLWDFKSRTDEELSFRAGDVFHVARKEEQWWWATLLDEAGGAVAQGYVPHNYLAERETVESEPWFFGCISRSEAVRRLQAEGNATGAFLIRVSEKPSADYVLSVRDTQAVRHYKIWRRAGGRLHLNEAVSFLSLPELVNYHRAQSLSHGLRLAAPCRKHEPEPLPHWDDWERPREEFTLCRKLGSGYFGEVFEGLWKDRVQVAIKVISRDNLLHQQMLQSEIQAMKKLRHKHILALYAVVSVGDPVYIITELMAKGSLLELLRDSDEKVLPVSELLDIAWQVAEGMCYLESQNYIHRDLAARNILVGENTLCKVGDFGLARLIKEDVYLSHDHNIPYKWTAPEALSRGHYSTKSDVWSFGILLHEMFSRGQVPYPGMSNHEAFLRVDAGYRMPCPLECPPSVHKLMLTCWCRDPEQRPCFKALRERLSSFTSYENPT
- method notes: radiometric filter-binding kinase assay, Kinase HotSpot
- applied conditions: compound 0.5 µM; ATP 10 µM
Field: value (include unit after the number)

Below are worked cases with known answers.
line_notation=CO[C@@H]1[C@H](N(C)C(=O)c2ccccc2)C[C@H]2O[C@]1(C)n1c3ccccc3c3c4c(c5c6ccccc6n2c5c31)C(=O)NC4 target_under_test="PTK6 (human) (UniProt Q13882)" endpoint_name="residual activity" result=96.2%
line_notation=Cc1nc(-c2ccccc2)c(-c2ccncc2)o1 target_under_test="PTK6 (human) (UniProt Q13882)" endpoint_name="residual activity" result=86%

Next, consider the following compound.
Q) Name the recorded residual activity of the item COc1ccc(S(=O)(=O)N(CCO)c2ccccc2CN(C)C/C=C/c2ccc(Cl)cc2)cc1 in your answer.
A) 89.3%
